system.name: T1, CBX8 chromodomain (CD) (UniProt Q9HC52 8-61)
T1 sequence: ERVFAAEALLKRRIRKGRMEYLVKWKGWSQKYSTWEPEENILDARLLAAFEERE
protocol.text: NMR titration (1H-15N HSQC); authors' estimate (likely); saturation at ~1:1, curved CSPs; EMSA: 25 mM phosphate pH 6.8, 25 mM NaCl, 1 mM EDTA, 1 mM DTT, 15 min on ice, 6% gel in 0.4x TBE; NMR: 40 mM phosphate pH 6.8, 100 mM NaCl, 25 C
assay.conditions: protein: recombinant; tags: GST removed by TEV; 15N-labelled for NMR; blunt
pKd: −log10 of the molar value.

>  <binder>
11 bp DNA (dsDNA) DNA 1: GCGTTTAAGCG DNA 2: CGCTTAAACGC

>  <pKd>
> 5.00

$$$$
